Target: UniProt:P35368
Sequence (P35368 whole entry): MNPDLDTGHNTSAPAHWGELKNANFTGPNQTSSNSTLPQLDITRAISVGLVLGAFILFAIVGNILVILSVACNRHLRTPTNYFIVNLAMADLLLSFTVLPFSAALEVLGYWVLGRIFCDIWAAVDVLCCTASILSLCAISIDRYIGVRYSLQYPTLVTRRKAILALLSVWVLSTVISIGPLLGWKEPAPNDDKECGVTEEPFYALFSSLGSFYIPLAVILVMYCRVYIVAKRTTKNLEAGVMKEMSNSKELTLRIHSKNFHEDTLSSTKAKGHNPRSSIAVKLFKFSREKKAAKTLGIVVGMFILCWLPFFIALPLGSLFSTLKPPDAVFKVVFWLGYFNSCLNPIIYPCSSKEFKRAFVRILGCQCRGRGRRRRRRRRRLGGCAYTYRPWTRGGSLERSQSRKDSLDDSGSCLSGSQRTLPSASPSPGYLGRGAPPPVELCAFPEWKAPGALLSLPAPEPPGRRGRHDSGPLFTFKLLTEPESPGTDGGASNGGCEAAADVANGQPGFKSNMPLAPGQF
Assay: Ability to displace [3H]prazosin from human cloned Alpha-1B adrenergic receptor

structure-notation: O[C@@H]1[C@H](NC[C@H]2COc3ccccc3O2)CC[C@H]1Oc1ccccc1
measure-unit: nM
Ki: 46.8

---

Target: Alpha-1D adrenergic receptor (Rattus norvegicus)
Test: Alpha-1D adrenergic receptor subtype blocking activity (antagonism) against (-)-noradrenaline-induced contraction of rat thoracic aorta.
Assay type: functional, tissue-based

compound: O[C@@H]1[C@H](NC[C@H]2COc3ccccc3O2)CC[C@H]1Oc1ccccc1
pKb: 8.17
--
compound: OC1C(NCC2COc3ccccc3O2)CC[C@H]1Oc1ccccc1 (stereo in doubt; 3)
pKb: 7.66
--
compound: OC1C(NCC2COc3ccccc3O2)CC[C@H]1Oc1ccccc1 (stereo in doubt; 4)
pKb: 7.85
--
compound: O[C@@H]1[C@H](NC[C@@H]2COc3ccccc3O2)CC[C@H]1Oc1ccccc1
pKb: 7.78
--
compound: COc1ccccc1O[C@@H]1CCC(NCC2COc3ccccc3O2)C1O (stereo in doubt; 6)
pKb: 7.3
--
compound: O[C@H]1[C@@H](NC[C@H]2COc3ccccc3O2)CC[C@@H]1Oc1ccccc1
pKb: 6.92
--
compound: COc1ccccc1O[C@@H]1CCC(NCC2COc3ccccc3O2)C1O (stereo in doubt; 5)
pKb: 7.15
--
compound: COc1cccc(OC)c1OCCNCC1COc2ccccc2O1 (stereo unspecified)
pKb: 8.6
--
compound: O[C@H]1[C@@H](NC[C@@H]2COc3ccccc3O2)CC[C@@H]1Oc1ccccc1
pKb: 6.65
--
compound: COc1cccc(OC)c1O[C@@H]1CCC(NCC2COc3ccccc3O2)C1O (stereo in doubt; 8)
pKb: 6.94
--
compound: COc1cccc(OC)c1O[C@@H]1CCC(NCC2COc3ccccc3O2)C1O (stereo in doubt; 7)
pKb: 7.32

---

Biological target: Alpha-1D adrenergic receptor (Homo sapiens, UniProt P25100)
Sequence (P25100 whole entry): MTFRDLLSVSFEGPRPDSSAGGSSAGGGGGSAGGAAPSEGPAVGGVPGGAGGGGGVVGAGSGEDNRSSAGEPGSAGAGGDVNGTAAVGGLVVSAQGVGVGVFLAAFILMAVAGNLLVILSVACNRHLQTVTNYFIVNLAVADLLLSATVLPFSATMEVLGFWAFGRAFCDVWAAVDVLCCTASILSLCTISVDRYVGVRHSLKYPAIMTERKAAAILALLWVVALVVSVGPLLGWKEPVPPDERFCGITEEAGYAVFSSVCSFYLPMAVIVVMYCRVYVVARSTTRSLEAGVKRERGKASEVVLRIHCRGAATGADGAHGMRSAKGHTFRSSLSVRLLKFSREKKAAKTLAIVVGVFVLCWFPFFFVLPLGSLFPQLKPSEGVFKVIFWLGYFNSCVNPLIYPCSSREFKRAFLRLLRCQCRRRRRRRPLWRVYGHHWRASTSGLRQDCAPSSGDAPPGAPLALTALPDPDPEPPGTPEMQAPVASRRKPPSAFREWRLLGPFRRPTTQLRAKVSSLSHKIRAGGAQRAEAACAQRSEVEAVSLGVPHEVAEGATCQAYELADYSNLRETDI
Assay: Displacement of [3H]prazosin from human cloned Alpha-1D adrenergic receptor
pKi: −log10 of the molar value.
Entries and their pKi values follow.
metric-name: pKi

structure-notation: O[C@H]1[C@@H](NC[C@@H]2COc3ccccc3O2)CC[C@@H]1Oc1ccccc1
metric-name: pKi
result-number: 6.03
//
structure-notation: O[C@H]1[C@@H](NC[C@H]2COc3ccccc3O2)CC[C@@H]1Oc1ccccc1
metric-name: pKi
result-number: 6.70
//
structure-notation: O[C@@H]1[C@H](NC[C@@H]2COc3ccccc3O2)CC[C@H]1Oc1ccccc1
metric-name: pKi
result-number: 7.79

---

Measured Ki (5-hydroxytryptamine receptor 1A (Homo sapiens, UniProt P08908))

compound: O[C@H]1[C@@H](NC[C@@H]2COc3ccccc3O2)CC[C@@H]1Oc1ccccc1
measure-unit: nM
Ki: 3.72

compound: O[C@H]1[C@@H](NC[C@H]2COc3ccccc3O2)CC[C@@H]1Oc1ccccc1
measure-unit: nM
Ki: 0.832

compound: O[C@@H]1[C@H](NC[C@H]2COc3ccccc3O2)CC[C@H]1Oc1ccccc1
measure-unit: nM
Ki: 5.5

compound: COc1ccccc1O[C@@H]1CCC(NCC2COc3ccccc3O2)C1O (stereo in doubt; 6)
measure-unit: nM
Ki: 26.9

compound: COc1ccccc1O[C@@H]1CCC(NCC2COc3ccccc3O2)C1O (stereo in doubt; 5)
measure-unit: nM
Ki: 24.5

compound: COc1cccc(OC)c1OCCNCC1COc2ccccc2O1 (configuration not stated)
measure-unit: nM
Ki: 2.09

compound: O[C@@H]1[C@H](NC[C@@H]2COc3ccccc3O2)CC[C@H]1Oc1ccccc1
measure-unit: nM
Ki: 22.4

---

Entries and their Max values follow.
Biological target: 5-hydroxytryptamine receptor 1A (Homo sapiens) (UniProt P08908)
Sequence (P08908 whole entry): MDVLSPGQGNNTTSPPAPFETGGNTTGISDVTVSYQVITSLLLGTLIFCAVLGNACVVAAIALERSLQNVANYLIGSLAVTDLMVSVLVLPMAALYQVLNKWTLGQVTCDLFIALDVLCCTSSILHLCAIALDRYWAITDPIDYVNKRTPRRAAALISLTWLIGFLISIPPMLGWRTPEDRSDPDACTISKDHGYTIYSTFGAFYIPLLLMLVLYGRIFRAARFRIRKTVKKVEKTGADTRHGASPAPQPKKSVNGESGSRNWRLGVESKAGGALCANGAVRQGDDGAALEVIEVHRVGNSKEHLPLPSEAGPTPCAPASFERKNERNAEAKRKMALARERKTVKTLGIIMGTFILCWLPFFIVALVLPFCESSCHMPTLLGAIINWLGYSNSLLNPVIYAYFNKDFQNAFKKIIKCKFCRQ
Assay: Agonist efficacy on 5-hydroxytryptamine 1A receptor subtype
Assay type: functional
metric-name: Max

structure-notation: O[C@H]1[C@@H](NC[C@H]2COc3ccccc3O2)CC[C@@H]1Oc1ccccc1
assay-target: 5-hydroxytryptamine receptor 1A (Homo sapiens) (UniProt P08908)
metric-name: Max
result: 82%
--
structure-notation: O[C@H]1[C@@H](NC[C@@H]2COc3ccccc3O2)CC[C@@H]1Oc1ccccc1
assay-target: 5-hydroxytryptamine receptor 1A (Homo sapiens) (UniProt P08908)
metric-name: Max
result: 96%
--
structure-notation: O[C@@H]1[C@H](NC[C@H]2COc3ccccc3O2)CC[C@H]1Oc1ccccc1
assay-target: 5-hydroxytryptamine receptor 1A (Homo sapiens) (UniProt P08908)
metric-name: Max
result: 100%
--
structure-notation: O[C@@H]1[C@H](NC[C@@H]2COc3ccccc3O2)CC[C@H]1Oc1ccccc1
assay-target: 5-hydroxytryptamine receptor 1A (Homo sapiens) (UniProt P08908)
metric-name: Max
result: 23%

---

Target: Adrenergic receptor alpha-2 (Rattus norvegicus, UniProt P22086+P19328+P22909)
Experiment: Displacement of [3H]rauwolscine from rat brain Alpha-2 adrenergic receptor
Entries and their Log Ki values follow.
metric-name: Log Ki

compound: O[C@@H]1[C@H](NC[C@@H]2COc3ccccc3O2)CC[C@H]1Oc1ccccc1
assay-target: Adrenergic receptor alpha-2 (Rattus norvegicus, UniProt P22086+P19328+P22909)
result-number: -6.27

compound: O[C@@H]1[C@H](NC[C@H]2COc3ccccc3O2)CC[C@H]1Oc1ccccc1
assay-target: Adrenergic receptor alpha-2 (Rattus norvegicus, UniProt P22086+P19328+P22909)
result-number: -6.05

compound: CCCN(CCC)C1CCc2cccc(O)c2C1 (stereo unspecified)
assay-target: Adrenergic receptor alpha-2 (Rattus norvegicus, UniProt P22086+P19328+P22909)
result-number: -6.08

compound: COc1ccccc1N1CCN(CCN2C(=O)CC3(CCCC3)CC2=O)CC1
assay-target: Adrenergic receptor alpha-2 (Rattus norvegicus, UniProt P22086+P19328+P22909)
result-number: -5.93

compound: O[C@H]1[C@@H](NC[C@@H]2COc3ccccc3O2)CC[C@@H]1Oc1ccccc1
assay-target: Adrenergic receptor alpha-2 (Rattus norvegicus, UniProt P22086+P19328+P22909)
result-number: -6.21

compound: O[C@H]1[C@@H](NC[C@H]2COc3ccccc3O2)CC[C@@H]1Oc1ccccc1
assay-target: Adrenergic receptor alpha-2 (Rattus norvegicus, UniProt P22086+P19328+P22909)
result-number: -6.23

---

Target: Serotonin 2 (5-HT2) receptor (Rattus norvegicus, UniProt P30994+P08909+P14842)
Assay: Displacement of [3H]ketanserin from rat brain 5-hydroxytryptamine 2 receptor

compound: O[C@@H]1[C@H](NC[C@H]2COc3ccccc3O2)CC[C@H]1Oc1ccccc1
comparator: <
Log Ki: -6

compound: COc1cccc(OC)c1OCCNCC1COc2ccccc2O1 (stereo not given)
comparator: =
Log Ki: -6

compound: CCCN(CCC)C1CCc2cccc(O)c2C1 (stereo not given)
comparator: <
Log Ki: -6

compound: O[C@H]1[C@@H](NC[C@H]2COc3ccccc3O2)CC[C@@H]1Oc1ccccc1
comparator: <
Log Ki: -6

compound: COc1ccccc1N1CCN(CCN2C(=O)CC3(CCCC3)CC2=O)CC1
comparator: =
Log Ki: -6.31

---

Target: Alpha-1B adrenergic receptor (Rattus norvegicus) (UniProt P15823)
Sequence (P15823 whole entry): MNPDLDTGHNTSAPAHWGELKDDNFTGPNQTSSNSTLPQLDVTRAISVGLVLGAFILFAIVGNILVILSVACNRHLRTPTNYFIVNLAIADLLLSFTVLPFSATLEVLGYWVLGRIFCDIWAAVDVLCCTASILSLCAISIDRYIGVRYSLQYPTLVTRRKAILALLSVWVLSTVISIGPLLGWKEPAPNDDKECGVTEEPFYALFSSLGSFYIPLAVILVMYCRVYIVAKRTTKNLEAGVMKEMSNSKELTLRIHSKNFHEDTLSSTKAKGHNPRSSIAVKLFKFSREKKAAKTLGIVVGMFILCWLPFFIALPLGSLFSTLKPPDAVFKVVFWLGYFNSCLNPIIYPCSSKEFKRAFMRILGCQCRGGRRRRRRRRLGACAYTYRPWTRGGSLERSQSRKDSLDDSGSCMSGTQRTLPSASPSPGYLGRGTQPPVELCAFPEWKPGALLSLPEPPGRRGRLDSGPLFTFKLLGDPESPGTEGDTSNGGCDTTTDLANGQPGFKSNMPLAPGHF
Assay: Antagonism of Alpha-1B adrenergic receptor subtype (-)-phenylephrine-induced contraction of rat spleen
Type: functional, tissue-based
Entries and their pKb values follow.

molecule: O[C@@H]1[C@H](NC[C@@H]2COc3ccccc3O2)CC[C@H]1Oc1ccccc1
pKb: 6.83
//
molecule: O[C@H]1[C@@H](NC[C@@H]2COc3ccccc3O2)CC[C@@H]1Oc1ccccc1
pKb: 5.44
//
molecule: COc1ccccc1O[C@@H]1CCC(NCC2COc3ccccc3O2)C1O (stereo in doubt; 5)
pKb: 6.24
//
molecule: OC1C(NCC2COc3ccccc3O2)CC[C@H]1Oc1ccccc1 (stereo in doubt; 3)
pKb: 6.45
//
molecule: COc1cccc(OC)c1OCCNCC1COc2ccccc2O1 (configuration not stated)
pKb: 8.21
//
molecule: OC1C(NCC2COc3ccccc3O2)CC[C@H]1Oc1ccccc1 (stereo in doubt; 4)
pKb: 6.47
//
molecule: O[C@@H]1[C@H](NC[C@H]2COc3ccccc3O2)CC[C@H]1Oc1ccccc1
pKb: 7.13
